These measurements were taken from ChEMBL document CHEMBL4007481.

# System: Mycolicibacterium smegmatis
# PROTOCOL TEXT: Inhibition of FtsZ in Mycobacterium smegmatis ATCC 607 assessed as growth inhibition at 100 ug per disc after 18 to 24 hrs by paper disc agar diffusion assay
The source made the active and inactive calls. The calls are words filed in the database; no cut-off is given here.
PROPERTY MEASURED: inhibition

NS(=O)(=O)c1c(F)ccc(OCc2nc3cc(Cl)ccc3s2)c1F: inactive
NC(=O)c1c(F)ccc(OCC(=O)OCCOc2ccc(Br)cc2)c1F: inactive
NC(=O)c1c(F)ccc(OCCCOC(=O)c2ccccc2)c1F: inactive
NC(=O)c1c(F)ccc(OCCCOc2cccc3cccnc23)c1F: inactive

----------
# System: Bacillus subtilis subsp. spizizenii ATCC 6633 = JCM 2499
# PROTOCOL TEXT: Inhibition of FtsZ in Bacillus subtilis ATCC 6633 assessed as growth inhibition at 100 ug per disc after 18 to 24 hrs by paper disc agar diffusion assay
Active and inactive are the calls of the source. The rule behind the calls is not given here.
PROPERTY MEASURED: inhibition

The cases that follow already have their inhibition on record.
NS(=O)(=O)c1c(F)ccc(OCc2nc3cc(Cl)cnc3s2)c1F: inactive
NC(=O)c1c(F)ccc(OCCCOc2cccc3cccnc23)c1F: inactive
NC(=O)c1c(F)ccc(OCc2nc3cc(Cl)cnc3s2)c1F: inactive
NC(=O)c1c(F)ccc(OCCCOc2ccc3ccccc3c2)c1F: inactive
Cc1ccc2cccc(OCCCOc3ccc(F)c(C(N)=O)c3F)c2n1: inactive

Query: Which inhibition reading was recorded for the molecule "NC(=O)c1c(F)ccc(OCCCOc2cccc3ccccc23)c1F" ?
Result: inactive

Query: So what does the record say about inhibition for "NC(=O)c1c(F)ccc(OCCCOC(=O)c2ccccc2)c1F" ?
Result: inactive

Query: inhibition lookup needed for "NS(=O)(=O)c1c(F)ccc(OCc2nc3cc(Cl)ccc3s2)c1F" , thanks.
Result: inactive

Query: Consider the molecule shown here: "NC(=O)c1c(F)ccc(OCCOC(=O)c2ccccc2)c1F" What is its recorded inhibition?
Result: inactive
